# assaySystem: CDK7HMAT1 (Homo sapiens)
# assaySetup: 10 µM
measuredParameter: activity (%)
// units = %; emit number, no label

Sample answers from the record:
{"columns": ["smilesRecord", "measuredParameter", "recordedResult"],
 "data": [
  ["CC(=O)N1CCN(c2ccc(Nc3nccc(-c4cnc5ccc(-c6cc[nH]c6)cn45)n3)nc2)CC1", "activity", 55],
  ["CC(=O)N1CCN(c2ccc(Nc3nccc(-c4cnc5ccc(C(F)(F)F)cn45)n3)nc2)CC1", "activity", 60],
  ["CC(=O)N1CCN(c2ccc(Nc3nccc(-c4cnc5ccc(-c6cnc(N7CCN(C)CC7)nc6)cn45)n3)nc2)CC1", "activity", 66]
]}

Reported activity for `CC(=O)N1CCN(c2ccc(Nc3nccc(-c4cnc5ccc(-c6cc7ccccc7o6)cn45)n3)nc2)CC1` was 97

For record `CC(=O)N1CCN(c2ccc(Nc3nccc(-c4cnc5ccc(-c6cc7ccccc7s6)cn45)n3)nc2)CC1` the listed activity is 106

Documented activity of `CC(=O)N1CCN(c2ccc(Nc3nccc(-c4cnc5ccc(C)cn45)n3)nc2)CC1` : 77

// activity value for `CC(=O)N1CCN(c2ccc(Nc3nccc(-c4cnc5ccc(-c6ccco6)cn45)n3)nc2)CC1` : 86

Lookup result for `CC(=O)N1CCN(c2ccc(Nc3nccc(-c4cnc5ccc(Cl)cn45)n3)nc2)CC1` ; measured activity: 76

###

# assaySystem: CDK6/D3 (Homo sapiens)
# protocol: ADP Glo kinase assay, CDK6/D3
# Assay type: biochemical
# assaySetup: CDK6D3; compound at 1 μM (values marked *); read-out: residual enzymatic activity (%) at 1 μM*
remaining activity at 1 µM reference
Entry rule: numbers only, all in %.

In plain terms, `CS(=O)(=O)N1CCN(c2ccc(Nc3nccc(-c4cnc5ccc(Br)cn45)n3)nc2)CC1` has a documented remaining activity at 1 µM of 63

###

# assaySystem: CDK7HMAT1 (Homo sapiens, UniProt P50613);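 note: kinase activity measured with an ADP-Glo luminescent kinase assay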
# Sequence (P50613 whole entry): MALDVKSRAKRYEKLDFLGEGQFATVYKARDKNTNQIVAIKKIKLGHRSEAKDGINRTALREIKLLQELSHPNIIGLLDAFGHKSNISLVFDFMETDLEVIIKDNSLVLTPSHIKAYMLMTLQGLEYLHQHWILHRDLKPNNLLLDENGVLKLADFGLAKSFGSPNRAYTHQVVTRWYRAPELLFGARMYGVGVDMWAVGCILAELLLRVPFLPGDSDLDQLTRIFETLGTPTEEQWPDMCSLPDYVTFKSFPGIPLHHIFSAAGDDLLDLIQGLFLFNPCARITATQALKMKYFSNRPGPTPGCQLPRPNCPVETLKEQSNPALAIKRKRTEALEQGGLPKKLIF
# Sequence (P51946 whole entry partner): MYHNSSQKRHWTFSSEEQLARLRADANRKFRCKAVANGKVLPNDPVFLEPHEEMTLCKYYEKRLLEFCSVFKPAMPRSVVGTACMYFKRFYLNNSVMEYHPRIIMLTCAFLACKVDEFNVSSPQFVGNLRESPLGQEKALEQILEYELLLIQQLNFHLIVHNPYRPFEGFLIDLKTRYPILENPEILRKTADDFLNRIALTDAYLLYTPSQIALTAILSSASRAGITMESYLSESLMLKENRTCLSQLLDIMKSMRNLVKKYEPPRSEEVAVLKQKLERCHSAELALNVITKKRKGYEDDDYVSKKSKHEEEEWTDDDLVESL
# Sequence (P51948 whole entry partner): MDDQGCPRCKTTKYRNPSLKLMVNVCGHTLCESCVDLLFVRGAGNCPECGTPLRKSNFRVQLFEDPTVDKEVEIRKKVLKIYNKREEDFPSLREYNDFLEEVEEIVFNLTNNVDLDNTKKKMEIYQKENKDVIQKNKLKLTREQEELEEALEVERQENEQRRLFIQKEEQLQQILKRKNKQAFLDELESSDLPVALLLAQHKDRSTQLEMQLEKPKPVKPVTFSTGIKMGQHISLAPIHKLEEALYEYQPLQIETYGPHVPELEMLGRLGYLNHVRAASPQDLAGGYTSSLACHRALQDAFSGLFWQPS
# assaySetup: 10 µM
Reported activity values for the following compounds.
The figure you give is taken to be in %; do not add the unit.

Worked examples, 2 compounds total:
{"columns": ["smilesRecord", "measuredParameter", "unitsOfMeasure", "recordedResult"],
 "data": [
  ["c1ccn2c(-c3ccnc(Nc4ccc(N5CCOCC5)cn4)n3)cnc2c1", "activity", "%", 74],
  ["CC(=O)N1CCN(c2ccc(Nc3nccc(-c4cnc5ccc(-c6cccnc6)cn45)n3)nc2)CC1", "activity", "%", 65]
]}

Sure, the documented activity for `CC(=O)N1CCCN(c2ccc(Nc3nccc(-c4cnc5ccccn45)n3)nc2)CC1` is 70

###

# assaySystem: CDK6/D3 (Homo sapiens, UniProt Q00534)
# Sequence (Q00534 whole entry, species assumed): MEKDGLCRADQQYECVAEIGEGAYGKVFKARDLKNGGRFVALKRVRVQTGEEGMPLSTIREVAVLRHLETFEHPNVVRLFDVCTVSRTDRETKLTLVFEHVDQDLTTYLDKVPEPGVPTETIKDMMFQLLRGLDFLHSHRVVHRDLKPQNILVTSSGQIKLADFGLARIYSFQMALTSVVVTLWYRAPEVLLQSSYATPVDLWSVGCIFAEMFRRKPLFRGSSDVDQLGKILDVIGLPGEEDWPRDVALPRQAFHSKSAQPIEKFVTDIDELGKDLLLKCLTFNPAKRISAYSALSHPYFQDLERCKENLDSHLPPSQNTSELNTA
# Sequence (P30281 whole entry partner, species assumed): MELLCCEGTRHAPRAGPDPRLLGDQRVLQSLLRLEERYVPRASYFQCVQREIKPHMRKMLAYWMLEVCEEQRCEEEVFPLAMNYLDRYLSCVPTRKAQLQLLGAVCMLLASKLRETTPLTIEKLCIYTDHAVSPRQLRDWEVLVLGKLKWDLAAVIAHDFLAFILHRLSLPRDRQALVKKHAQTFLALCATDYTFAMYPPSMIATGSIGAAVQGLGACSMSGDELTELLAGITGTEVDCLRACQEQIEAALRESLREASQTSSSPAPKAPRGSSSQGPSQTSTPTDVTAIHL
# protocol: ADP Glo kinase assay, CDK6/D3
# Assay type: biochemical
# assaySetup: CDK6D3; compound at 1 μM (values marked *); read-out: residual enzymatic activity (%) at 1 μM*
# if measured remaining activity at 1 µM < 70%: Yes  # else: No

Field: below-cutoff. Rule: recorded remaining activity at 1 µM strictly less than 70%. Subject: `CC(=O)N1CCN(c2ccc(Nc3nccc(-c4cnc5ccc(-c6cn(S(=O)(=O)c7ccccc7)c7ccccc67)cn45)n3)nc2)CC1`
No

I wonder whether `CC(=O)N1CCN(c2ccc(Nc3ncc(F)c(-c4cnc5ccc(F)cn45)n3)nc2)CC1` has remaining activity at 1 µM below 70%. Can you tell?
Yes

Does this compound meet the criterion remaining activity at 1 µM < 70%? `CC(=O)N1CCN(c2ccc(Nc3nccc(-c4cnc5ccc(-c6c[nH]c7ccccc67)cn45)n3)nc2)CC1`
No

Identify whether the compound `CN1CCN(c2ccc(Nc3nccc(-c4cnc5ccc(-c6ccccc6)cn45)n3)nc2)CC1` records remaining activity at 1 µM below 70%.
No

Threshold test, remaining activity at 1 µM < 70%: `CC(=O)N1CCN(c2ccc(Nc3nccc(-c4cnc5ccc(-c6cccc7[nH]ccc67)cn45)n3)nc2)CC1`
No

Is it true that remaining activity at 1 µM reported for `CC(=O)N1CCN(c2ccc(Nc3ncc(F)c(-c4cnc5ccc(C)cn45)n3)nc2)CC1` is less than 70%?
Yes

Please let me know if `CC(=O)N1CCN(c2ccc(Nc3nccc(-c4cnc5ccc(-c6c[nH]c7ncccc67)cn45)n3)nc2)CC1` shows remaining activity at 1 µM below 70%.
Yes

Please indicate whether the reported remaining activity at 1 µM of `CC(=O)N1CCN(c2ccc(Nc3nccc(-c4cnc5ccc(-c6cn(C)c7ccccc67)cn45)n3)nc2)CC1` is strictly below 70%.
No

A record lists `CC(=O)N1CCN(c2ccc(Nc3ncc(F)c(-c4cnc5ccccn45)n3)nc2)CC1` . Is its remaining activity at 1 µM below 70%?
Yes

Field: below-cutoff. Rule: recorded remaining activity at 1 µM strictly less than 70%. Subject: `CC(=O)N1CCN(c2ccc(Nc3nccc(-c4cnc5ccc(-c6cc7ccccc7n6C)cn45)n3)nc2)CC1`
No
